# Measured on: PKG (Homo sapiens)
# Sequence (Q13976 whole entry): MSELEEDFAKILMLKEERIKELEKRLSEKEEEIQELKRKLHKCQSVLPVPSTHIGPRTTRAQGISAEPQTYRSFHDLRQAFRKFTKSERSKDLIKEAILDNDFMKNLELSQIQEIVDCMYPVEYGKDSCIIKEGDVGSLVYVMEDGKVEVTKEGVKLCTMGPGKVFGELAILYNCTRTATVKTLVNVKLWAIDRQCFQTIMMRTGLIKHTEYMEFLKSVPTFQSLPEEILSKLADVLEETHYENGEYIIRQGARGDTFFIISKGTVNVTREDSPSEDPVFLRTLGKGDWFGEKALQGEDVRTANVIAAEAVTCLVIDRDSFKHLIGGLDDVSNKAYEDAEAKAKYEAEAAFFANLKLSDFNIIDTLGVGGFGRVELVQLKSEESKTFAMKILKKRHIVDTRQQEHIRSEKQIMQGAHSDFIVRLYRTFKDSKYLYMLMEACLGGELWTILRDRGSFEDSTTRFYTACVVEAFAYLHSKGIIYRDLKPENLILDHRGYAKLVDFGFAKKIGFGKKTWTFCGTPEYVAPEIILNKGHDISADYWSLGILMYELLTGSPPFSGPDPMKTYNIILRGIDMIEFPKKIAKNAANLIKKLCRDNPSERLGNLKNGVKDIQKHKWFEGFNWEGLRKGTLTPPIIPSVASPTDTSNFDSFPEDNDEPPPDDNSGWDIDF
Experimental endpoint: IC50 (nM)

>>> quantitative_result("CCCOc1ccc(OC)c(F)c1C(=O)c1ccc(C(=O)N[C@@H]2CNC[C@H]2NC(=O)c2ccc3[nH]ncc3c2)cc1")
7.5

* * *

# Measured on: Protein Kinase A (PKA) (Homo sapiens)
Experimental endpoint: IC50

>>> result("CCCOc1ccc(OC)c(F)c1C(=O)c1ccc(C(=O)N[C@@H]2CNC[C@H]2NC(=O)c2ccc3[nH]ncc3c2)cc1")
"2 µM"
